# method_notes: solubility in water of compounds of the invention
# cond: water
metric_name: solubility

Prompt: May I ask what solubility has been recorded for CCCSc1ccc2c(c1)nc(NC(=O)OC)n2COP(=O)([O-])[O-].[Na+].[Na+] ?
Completion: ≥ 50 mM
